# assay.name: Selectivity ratio of MHC10 for BALB/C mouse erythrocytes to MIC for bacteria
# Format: toxicity
Where a SMILES comes first, the peptide text is derived from it.
test.readout: selectivity ratio

molecule	selectivity ratio
C[C@H](NC(=O)[C@H](C)NC(=O)[C@@H](NC(=O)[C@H](CCCCN)NC(=O)[C@H](C)NC(=O)[C@H](CCCNC(=N)N)NC(=O)[C@H](CCCCN)NC(=O)[C@H](C)NC(=O)[C@H](C)NC(=O)CN)[C@@H](C)O)C(N)=O (H-GAAKRAKTAA-NH2)	1

# next molecule below
Prompt line: State the recorded selectivity ratio for this entry: N=C(N)NCCC[C@H](NC(=O)[C@H](CCCCN)NC(=O)[C@H](Cc1c[nH]c2ccccc12)NC(=O)[C@H](Cc1c[nH]c2ccccc12)NC(=O)[C@@H](N)CCCCN)C(=O)N[C@@H](Cc1c[nH]c2ccccc12)C(=O)N[C@@H](CCCCN)C(=O)N[C@@H](CCCCN)C(=O)N[C@@H](Cc1c[nH]c2ccccc12)C(=O)N[C@@H](Cc1c[nH]c2ccccc12)C(N)=O (H-KWWKRWKKWW-NH2)
Response line: 8.16
